The origin of these recorded values is patent US20230192860A1.

# target.under.test: T1, hVISTA-ECD 6-His tag (human, UniProt Q9H7M9 33-193)
# T1 construct: also called monovalent hVISTA-ECD; human VISTA
# experimental.protocol: SPR 37 C, Ab on Protein A, pH 6.0
readout.label: kon (M⁻¹ s⁻¹)
The reply should contain only the number, in M⁻¹ s⁻¹.

binder	kon, M⁻¹ s⁻¹
P1-077863 (P1-068744 E59Y E102Y) (antibody, V domains shown) VH: QVQLVESGGGVVQPGRSLRLSCAASGFTFSEYAMHWVRQAPGKGLEWVAHIWYDGSNKYYADSVKGRFTISRDNSKNTLYLQMNSLRAEDTAVYYCARDSGFYESYYFDYWGQGTLVTVSS VL: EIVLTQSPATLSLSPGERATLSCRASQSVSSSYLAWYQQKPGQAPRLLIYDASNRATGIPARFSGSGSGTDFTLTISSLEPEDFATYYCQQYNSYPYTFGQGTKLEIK	140000
P1-077857 (P1-068744 E31S E100S) (antibody, V domains shown) VH: QVQLVESGGGVVQPGRSLRLSCAASGFTFSSYAMHWVRQAPGKGLEWVAHIWYDGSNKYEADSVKGRFTISRDNSKNTLYLQMNSLRAEDTAVYYCARDSGFYSSYYFDEWGQGTLVTVSS VL: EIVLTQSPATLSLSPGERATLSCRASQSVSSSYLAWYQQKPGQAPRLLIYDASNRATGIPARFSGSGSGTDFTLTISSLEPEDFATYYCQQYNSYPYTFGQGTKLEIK	820000
P1-077855 (P1-068744 E31S E59Y) (antibody, V domains shown) VH: QVQLVESGGGVVQPGRSLRLSCAASGFTFSSYAMHWVRQAPGKGLEWVAHIWYDGSNKYYADSVKGRFTISRDNSKNTLYLQMNSLRAEDTAVYYCARDSGFYESYYFDEWGQGTLVTVSS VL: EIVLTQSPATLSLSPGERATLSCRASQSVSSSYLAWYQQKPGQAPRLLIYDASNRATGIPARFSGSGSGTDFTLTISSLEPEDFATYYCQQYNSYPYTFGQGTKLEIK	210000

# context switch: different binder, same kon
Looking up P1-077837 (P1-068744 H50I) (antibody, V domains shown) VH: QVQLVESGGGVVQPGRSLRLSCAASGFTFSEYAMHWVRQAPGKGLEWVAIIWYDGSNKYEADSVKGRFTISRDNSKNTLYLQMNSLRAEDTAVYYCARDSGFYESYYFDEWGQGTLVTVSS VL: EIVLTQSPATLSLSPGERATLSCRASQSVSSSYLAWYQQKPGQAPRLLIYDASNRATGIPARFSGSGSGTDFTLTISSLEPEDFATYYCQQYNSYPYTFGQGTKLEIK , I see its kon listed as 1.2e+06
